Just for reference, patent US20070219214A1 is where these values come from.

This listing pairs compounds with measured Ki.
Target: human NK3 receptor (Homo sapiens)
Sequence (P29371 1-465): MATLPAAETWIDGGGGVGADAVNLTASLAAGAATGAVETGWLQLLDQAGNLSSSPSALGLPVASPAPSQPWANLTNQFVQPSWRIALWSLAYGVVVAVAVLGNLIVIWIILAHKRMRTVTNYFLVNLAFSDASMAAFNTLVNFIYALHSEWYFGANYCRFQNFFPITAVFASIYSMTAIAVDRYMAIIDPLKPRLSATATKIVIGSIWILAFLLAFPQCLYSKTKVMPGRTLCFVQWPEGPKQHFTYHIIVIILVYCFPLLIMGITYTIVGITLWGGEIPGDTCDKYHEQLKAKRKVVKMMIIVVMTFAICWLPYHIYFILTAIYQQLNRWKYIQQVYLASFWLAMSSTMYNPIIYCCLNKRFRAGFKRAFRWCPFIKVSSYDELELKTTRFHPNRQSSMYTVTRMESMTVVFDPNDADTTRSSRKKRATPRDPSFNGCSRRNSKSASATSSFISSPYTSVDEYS
Assay: Binding potency of the test substances to NK3-receptors in vitro ([3H]-SR 142801 displacement)
Parameters: expressed in transfected cells; host or cells: CHO cells (membrane preparation)
Settings: human NK3-receptor in CHO cell membranes, [3H]-SR 142801 (osanetant); average of at least three measurements; read-out: pKi, binding potency to NK3-receptors (converted)
reported-property: Ki (nM)

In [3]: df
Out[3]:
                                   compound  reported
0  CN(C)C(=O)C1(N2CCCCC2)CCN(CCC(CN(C)C(=O)c2ccc3cc[nH]c3c2)c2ccc(Cl)c(Cl)c2)CC1 (stereo not drawn)      15.8
1  CN(C)C(=O)C1(N2CCCCC2)CCN(CCC(CN(C)C(=O)c2c(-c3ccccc3)oc3ccccc3c2=O)c2ccc(Cl)c(Cl)c2)CC1 (stereo not drawn)      63.1
2  CN(C)C(=O)C1(N2CCCCC2)CCN(CCC(CN(C)C(=O)c2ccccc2Br)c2ccc(Cl)c(Cl)c2)CC1 (stereo not drawn)      39.8
